Taken from the supplement of paper PMC10065799.

target: SHP2-C SH2; assay: SH2 binding enrichment of the phosphorylated peptide, bacterial display (enrichment ratio); higher = better substrate or ligand; peptides without Tyr show the background;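 note: peptide library displayed on the E. coli surface as eCPX fusions, selected cells deep-sequenced, score is each peptide's frequency after selection divided by its frequency in the input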
Criterion: SH2 binding enrichment meeting or surpassing 0.8. Met: Criterion met. Not met: Criterion not met.

Hello, I need to know if TSSAIYMNLAS [GATAD2B_Y317] has measured SH2 binding enrichment not below 0.8. Thanks!
Criterion met

hey, is SH2 binding enrichment for this one >= 0.8? IDDNEYAYLKA [HNF4A_Y286]
Criterion not met

Item PRLMLYNPTTF [EGFR_Y270_P266R_YF] with SH2 binding enrichment of 0.8 or above?
Criterion not met

Tell me whether SH2 binding enrichment is at least 0.8 here: CNRADYSKLAP [GNE_Y22]
Criterion not met

Hi, just wondering whether VFGVSYDEYRY [CFTR_Y512_I507V] shows SH2 binding enrichment of 0.8 or higher.
Criterion not met

Say whether PRLLRYLQLDF [ASB10_Y457] shows SH2 binding enrichment of 0.8 or more.
Criterion met

Assess whether reported SH2 binding enrichment for GQDLLYEDEDL [PACS1_Y303_F302L] sits at 0.8 or higher.
Criterion not met

Tell me whether SH2 binding enrichment is at least 0.8 here: PEACDYGLGGG [GSTO1_Y239]
Criterion not met

Check if SH2 binding enrichment >= 0.8 (inclusive). Item: CNPLRYPTIMI [OR6K6_Y160]
Criterion met

Is the recorded value of SH2 binding enrichment equal to or greater than 0.8 for this sequence? KACNPYKPPGP
Criterion met

Please check the record GTHCHYKAPIV [FZD9_Y569_T573I] and state if its SH2 binding enrichment is at or above 0.8.
Criterion met

Does the reported SH2 binding enrichment for LLVVVYKYRCY [PSEN1_Y154_L153V] fall at or above the 0.8 mark?
Criterion met

Could you please find out whether RLVTRYIYNRE [HLA-DQB1_Y62_Y58L] has SH2 binding enrichment that meets 0.8 or exceeds it?
Criterion met

Item YYHCTYKQRMI [CLEC12A_Y242_K244Q] with SH2 binding enrichment of 0.8 or above?
Criterion met

Reported SH2 binding enrichment reaches at least 0.8 for LQLLGHRPVYS [CHST6_Y358_Y358H] ?
Criterion met

SH2 binding enrichment >= 0.8 for GIVEDYRPPVF [ACVRL1_Y421_F425V_YF] ?
Criterion not met

Threshold query (SH2 binding enrichment >= 0.8) on TTKAKYKTPTY [PLD2_Y573]
Criterion met
